SUBJECT OF TEST: T1, hepatitis A virus (HAV) full particle, genotype TZ84 (HAV IA genotype) (hepatitis A virus, genotype TZ84 (HAV …))
T1 chain 1: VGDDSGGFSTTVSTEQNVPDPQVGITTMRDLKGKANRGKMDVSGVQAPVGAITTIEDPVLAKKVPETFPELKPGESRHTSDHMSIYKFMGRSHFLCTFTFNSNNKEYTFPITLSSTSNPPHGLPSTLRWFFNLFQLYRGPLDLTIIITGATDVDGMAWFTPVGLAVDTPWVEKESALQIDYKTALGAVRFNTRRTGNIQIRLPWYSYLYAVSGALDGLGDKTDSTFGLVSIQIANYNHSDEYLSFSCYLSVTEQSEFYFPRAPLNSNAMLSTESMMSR
T1 chain 2: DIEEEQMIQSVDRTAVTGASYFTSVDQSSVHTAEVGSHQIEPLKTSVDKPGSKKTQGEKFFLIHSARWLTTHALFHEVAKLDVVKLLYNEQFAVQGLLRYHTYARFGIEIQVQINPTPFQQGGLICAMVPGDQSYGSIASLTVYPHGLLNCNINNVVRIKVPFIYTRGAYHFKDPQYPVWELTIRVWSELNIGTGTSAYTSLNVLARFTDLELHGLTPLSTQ
T1 chain 3: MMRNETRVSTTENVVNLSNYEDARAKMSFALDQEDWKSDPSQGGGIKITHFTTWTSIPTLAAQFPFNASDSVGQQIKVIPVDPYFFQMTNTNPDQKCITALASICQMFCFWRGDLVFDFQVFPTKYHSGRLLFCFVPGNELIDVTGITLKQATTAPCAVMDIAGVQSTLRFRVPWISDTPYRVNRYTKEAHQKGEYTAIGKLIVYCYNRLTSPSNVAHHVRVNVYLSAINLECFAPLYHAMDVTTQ
PROTOCOL: SPR
PARAMETER: koff (s⁻¹)
// note: answer is a bare numeric in s⁻¹

| BINDER | ASSAY RESULT |
| --- | --- |
| R10 Fab (fragment of antigen binding of the neutralizing monoclonal antibody R10) (Fab, V domains shown) VH: EVKLVESGGGSVKPGGSLKLSCAASGFSFSTYGMSWVRQTPEKRLEWVATISGGGGYTYYPDSVKGRFTISRDNARNILYLQMSSLRSGDTAMYYCARRVTTVAEYYFDYWGQGTTLTVSS VL: DIVLTQSPAIMSASPGEKVTMTCSASSSVSYIHWYQQKSGTSPKRWIYDTSRLAFGVPGRFSGSGSGTSYSLTISSMEAEDAATYYCQQWSSNYTFGGGTNLEIK | 0.000528 |

Next binder, please.
Can you look up the measured koff of F4 Fab (fragment of antigen binding of the neutralizing monoclonal antibody F4) (Fab, V domains shown) VH: EVKLVESGGGLVKPGGSLKLSCAASLFTHNNYGMSWVRQTPEKRLEWVATINSTASYTYYPDSVKGRFTISRDNAKNTLYLQMSSLRSGDTAIYYCARKNDTFSDYYFDYWGQGTTLTVSS VL: DIVLTQSPAIMSASPGERVTMTCSAHVSTDYMHWYQQKSGTSPKRWIYDTSKLASTVPDRFSGSGSGTSYSLTISSMEAEDAATYYCQQWNNNAYTYGGGTKLEIK for me?
0.000252
